Reference source for all entries: ChEMBL document CHEMBL1201862

Test system: EKVX
Assay Info: NCI tumour cell line growth inhibition, 48 h
The source made the active and inactive calls. Cut-off read from the data, not from the text of the source: active = GI50 up to about 1.1 µM and inactive = higher.
Endpoint: GI50

INSERT INTO measurements (compound, endpoint, result) VALUES
  ('CCCCCCCCCCCCCCCCCCNc1nc(=O)n(C2CC(O)C(COP(=O)(O)OCC(COP(=O)(O)OC3C(CO)OC(n4ccc(N)nc4=O)C3O)OCCCCCCCCCCCCCCCCCC)O2)cc1F (stereo not drawn)', 'GI50', '> 100 µM (inactive)'),
  ('Cn1cc(NC(=O)Nc2cc(C(=O)Nc3cc(C(=O)Nc4ccc(S(=O)(=O)O)c5cc(S(=O)(=O)O)ccc45)n(C)c3)n(C)c2)cc1C(=O)Nc1cc(C(=O)Nc2ccc(S(=O)(=O)O)c3cc(S(=O)(=O)O)ccc23)n(C)c1', 'GI50', '34 µM (inactive)'),
  ('OC1(C(F)(F)F)OCCN=C1C(F)(F)F (stereo not drawn)', 'GI50', '> 100 µM (inactive)'),
  ('O=C1CC(NC2CC(=O)c3c(Br)sc(Br)c32)c2c(Br)sc(Br)c21 (stereo not drawn)', 'GI50', '3 µM (inactive)'),
  ('COc1ccc(CNc2cnc3ccc(N)cc3n2)cc1OC', 'GI50', '> 100 µM (inactive)'),
  ('COc1cccc(N(CN2CC=CC2=O)C(C)=O)c1', 'GI50', '> 100 µM (inactive)'),
  ('O=C(CC(=O)c1ccccc1NC1=Cc2ccccc2C(=O)C1=O)C(=O)NC1=C(Cl)C(=O)c2ccccc2C1=O', 'GI50', '7.98 µM (inactive)');

// query Sample CN(C)Cc1cc(C(=O)/C=C/c2ccccc2)cc(CN(C)C)c1O — what was its GI50?
// result 33.6 µM (inactive)

* * *

Test system: MDA-MB-435
Assay Info: NCI tumour cell line growth inhibition, 48 h
Activity calls are given as the source filed them. Rule as the data show it: active = GI50 up to about 1.1 µM and inactive = higher. Where a SMILES comes first, the peptide text is derived from it. [ ]: non-standard residue; d: D form. The star is where a group is joined. NMeF = CN[C@@H](Cc1ccccc1)C(=O)O; NMeV = CN[C@H](C(=O)O)C(C)C; Boc = CC(C)(C)OC(=O)*; OBn = c1ccc(CO*)cc1
Endpoint: GI50

These solved cases illustrate the format of a correct answer.
INSERT INTO measurements (compound, target, endpoint, result) VALUES
  ('C=CCN1CCC(OC(=O)C(O)(/C=C\CC)C2CCCC2)CC1 (stereo not drawn)', 'MDA-MB-435', 'GI50', '> 100 µM (inactive)'),
  ('C=C1CC[C@@H](CCC2CCC3(OC2)O[C@]2(O)CC[C@@]3(C)OC2(C)C)C(C)(C)[C@H]1C/C=C1\CCOC1=O (stereo partly drawn)', 'MDA-MB-435', 'GI50', '14.3 µM (inactive)'),
  ('O=c1c(Sc2c(SCSc3cnc4ccccc4c3Sc3c[nH]c4ccccc4c3=O)cnc3ccccc23)c[nH]c2ccccc12', 'MDA-MB-435', 'GI50', '31.1 µM (inactive)'),
  ('NC(=O)C1=C(O)C[C@@H]2CC3Cc4cccc(O)c4C(=O)C3=C(O)[C@]2(O)C1=O (stereo partly drawn)', 'MDA-MB-435', 'GI50', '10.1 µM (inactive)'),
  ('Cc1cccc(C(C)C)c1NC(=O)C(=O)CC(=O)c1sc(Nc2ccccc2Cl)nc1C', 'MDA-MB-435', 'GI50', '7.26 µM (inactive)'),
  ('O=c1c(-c2ccccc2)c(SCCN2CCCC2)n(-c2ccccc2)c(=S)n1-c1ccccc1', 'MDA-MB-435', 'GI50', '> 100 µM (inactive)');

// query Sample N=C(N)n1nc2c(c1O)CCCC2 — what was its GI50?
// result > 100 µM (inactive)

// query Repeat for the following compound: CC(C)[C@@H](C(=O)N1CCC[C@H]1C(=O)OCc1ccccc1)N(C)C(=O)[C@H](C(C)C)N(C)C(=O)[C@H](Cc1ccccc1)N(C)C(=O)[C@H](NC(=O)OC(C)(C)C)C(C)C (Boc-[dV][NMeF][NMeV][NMeV]P-OBn)
// result > 50 µM (inactive)

* * *

Tested on: SK-OV-3
Assay Info: NCI tumour cell line growth inhibition, 48 h
Active and inactive are the calls of the source. No stated cut-off is given here; in the data, active = GI50 up to about 1.1 µM and inactive = higher.
Listed below: GI50 values for each entry.

INSERT INTO measurements (compound, endpoint, result) VALUES
  ('CCOC(=O)N1CCC2(CC1)C[C@@](C(C)=O)(c1ccccc1)C(C)O2 (stereo not given in full)', 'GI50', '57.4 µM (inactive)'),
  ('CNC(=O)CCCN(C)C(=O)CCCCC(=O)N(C)C', 'GI50', '> 61.5 µM (inactive)'),
  ('COc1cccc2c1C(=O)c1ccc3cc(CCl)cc(O)c3c1C2=O', 'GI50', '1.19 µM (inactive)');

Consider the additional compound presented here.
// query Notebook entry, SK-OV-3 assay: GI50 of CCOC(=O)Cn1c(=O)c2cc(-c3ccccc3)cc3c(Cl)nc4c(OC)c(OC)cc1c4c32 = ?
// result 43.8 µM (inactive)

* * *

Test system: Malme-3M
Assay Info: NCI tumour cell line growth inhibition, 48 h
Calls of active or inactive are those of the source. Rule as the data show it: active = GI50 up to about 1.1 µM and inactive = higher.
Choose one outcome from this list and give only that: active, inactive

// query Could you please tell me the result logged for O=C(NN1C(=O)C(Cl)C1c1ccc(Cl)cc1)c1c(Cl)c(Cl)c(Cl)c(Cl)c1-c1nc2ccccc2[nH]1 (stereo unspecified) in this assay?
// result inactive

* * *

Test system: LXFL 529
Assay Info: NCI tumour cell line growth inhibition, 48 h
Calls of active or inactive are those of the source. Cut-off read from the data, not from the text of the source: active = GI50 up to about 1.1 µM and inactive = higher. Where a SMILES comes first, the peptide text is derived from it. [ ]: non-standard residue; d: D form. The star is where a group is joined. NMeF = CN[C@@H](Cc1ccccc1)C(=O)O; NMeV = CN[C@H](C(=O)O)C(C)C; Boc = CC(C)(C)OC(=O)*; OBn = c1ccc(CO*)cc1
Endpoint: GI50

// query Sample O=C1/C(=C/c2ccc3c(c2)OCCO3)CCC/C1=C\c1ccc2c(c1)OCCO2 — what was its GI50?
// result 37.5 µM (inactive)

// query Repeat for the following compound: CC(C)[C@@H](C(=O)N1CCC[C@H]1C(=O)OCc1ccccc1)N(C)C(=O)[C@H](C(C)C)N(C)C(=O)[C@H](Cc1ccccc1)N(C)C(=O)[C@H](NC(=O)OC(C)(C)C)C(C)C (Boc-[dV][NMeF][NMeV][NMeV]P-OBn)
// result 22.2 µM (inactive)

// query Repeat for the following compound: CC(=O)OC1(C)C(=O)OC1(C)C(C)=O (centres undefined)
// result > 100 µM (inactive)

// query Repeat for the following compound: O=C1Cc2nc(CO)c(CO)c(CO)c2CO1
// result > 100 µM (inactive)

* * *

Tested on: OVCAR-8
Assay Info: NCI tumour cell line growth inhibition, 48 h
Calls of active or inactive are those of the source. No stated cut-off is given here; in the data, active = GI50 up to about 1.1 µM and inactive = higher.
Choose one outcome from this list and give only that: label 1 for active, label 0 for inactive

Use the examples below as a reference point.
INSERT INTO assay_data (compound, category_label) VALUES
  ('CC(=O)Nc1ccccc1NC1CC(C)N(c2ccccc2)N1C(C)=O (stereo not given)', 'label 0'),
  ('CC1(C)CCCC2CC2CCC(C)(C)C1=O (stereo not given)', 'label 0'),
  ('COC(=O)c1ccc(Oc2nc3ccccc3nc2-c2cccs2)cc1', 'label 0'),
  ('c1cc2nsnc2c2c[nH]cc12', 'label 0'),
  ('COc1ccc(C(=C2C(=O)OC(=O)C2=C(C)C)c2ccc(OC)cc2)cc1', 'label 0');

// query Could you please tell me the result logged for CC(=O)N1CCN(CCCCN2c3ccccc3Sc3cc(N=[N+]=[N-])ccc32)CC1 in this assay?
// result label 0

// query Repeat for the following compound: CNc1nncc2[nH]cnc12
// result label 0

// query Repeat for the following compound: CNc1ccccc1S(=O)(=O)c1ccccc1[N+](=O)[O-]
// result label 0

* * *

Test system: UACC-62
Assay Info: NCI tumour cell line growth inhibition, 48 h
Active and inactive are the calls of the source. Cut-off read from the data, not from the text of the source: active = GI50 up to about 1.1 µM and inactive = higher.
Listed below: GI50 values for each entry.

// query Notebook entry, UACC-62 assay: GI50 of COc1cc(C2c3cccc4cccc(c34)C3CCC(=O)N32)cc(O)c1O (stereo unspecified) = ?
// result 25.6 µM (inactive)

// query Repeat for the following compound: CCOc1ccc(/C=C2\N=C(c3ccccc3)OC2=O)cc1
// result > 100 µM (inactive)

// query Repeat for the following compound: OC1(C(F)(F)F)OCCN=C1C(F)(F)F (stereo unspecified)
// result > 100 µM (inactive)

// query Repeat for the following compound: COc1cc(S(=O)(=O)Nc2nc(-c3ccc(N4C(=O)C(CC(=O)O)SC4c4cccs4)cc3)cs2)ccc1Cl (stereo unspecified)
// result 23.4 µM (inactive)

* * *

Tested on: SK-MEL-5
Assay Info: NCI tumour cell line growth inhibition, 48 h
Calls of active or inactive are those of the source. No stated cut-off is given here; in the data, active = GI50 up to about 1.1 µM and inactive = higher.
Endpoint: GI50

These solved cases illustrate the format of a correct answer.
INSERT INTO results (compound, target, result) VALUES
  ('CCCCc1c2c(nc3c1CCCC3O)/C(=C/c1ccccc1)CCC2 (stereo not given)', 'SK-MEL-5', '21.7 µM (inactive)'),
  ('NCCN1C(=O)c2ccccc2C1(O)c1ccc(Cl)cc1 (stereo not given)', 'SK-MEL-5', '16.4 µM (inactive)');

// query Sample Cc1cc(N(CCC#N)CCC#N)ccc1CC1N=C(c2ccccc2)OC1=O (stereo not given) — what was its GI50?
// result > 100 µM (inactive)

// query Repeat for the following compound: Cc1nc2ccc(S(=O)(=O)O)cc2c(=O)n1-c1ccc(C(=O)NN2C(=O)C(Cl)C2c2ccccc2O)cc1 (stereo not given)
// result > 100 µM (inactive)

// query Repeat for the following compound: Nc1c(F)c(F)c2c(c1F)N(CCCCCl)c1ccccc1S2
// result > 100 µM (inactive)
